Tested on: white rats with experimental diabetes (alloxan diabetes)
experimentSummary: Anti-diabetic, hypolipidemic and hypocholesteremic activity, alloxan diabetes model in rats (Example 2)
Format: in vivo, rat
experimentalContext: in 10 days; compounds 50 mg/kg, metmorphin 200 mg/kg daily
Where a name gives a salt, the structure may show the parent alone.
propertyMeasured: Percent of survived rats
Answer by giving the amount and then stating its unit.

Here are 4 compounds together with their reported answers.
compound | measuredTarget | Percent of survived rats
CN(C)C(=N)N=C(N)N [Metmorphin, reference compound] | white rats with experimental diabetes (alloxan diabetes) | 100%
CCOC(=O)c1c(CSc2ccccc2)n(C)c2cc(Br)c(O)c(CN(C)C)c12 [MC-200, hydrochloride] | white rats with experimental diabetes (alloxan diabetes) | 100%
CCOC(=O)c1c(CN2CCCC2)n(C)c2cc(-c3cccnc3)c3c(c12)CN(C)CO3 [MC-213, trihydrochloride] | white rats with experimental diabetes (alloxan diabetes) | 90%
CCOC(=O)c1c(CSc2ccc3ccccc3c2)n(C)c2cc(Br)c(O)c(CN(C)C)c12 [MC-217, hydrochloride] | white rats with experimental diabetes (alloxan diabetes) | 100%

Note down Percent of survived rats recorded for "CCOC(=O)c1c(CN2CCCC2)n(C)c2cc(-c3cccnc3)c(O)cc12"
100%

---

Task for the reader: assign each of the following compounds its reported Glycosylated hemoglobin.
Test system: white rats with experimental diabetes (alloxan diabetes)
experimentSummary: Anti-diabetic, hypolipidemic and hypocholesteremic activity, alloxan diabetes model in rats (Example 2)
Format: in vivo, rat
experimentalContext: in 20 days; compounds 50 mg/kg, metmorphin 200 mg/kg daily
Where a name gives a salt, the structure may show the parent alone.
Answers are plain numbers, in mol %.

compound | Glycosylated hemoglobin / mol %
CCOC(=O)c1c(CN2CCCC2)n(C)c2cc(-c3cccnc3)c(O)cc12 | 5.0
CCOC(=O)c1c(CSc2ccc3ccccc3c2)n(C)c2cc(Br)c(O)c(CN(C)C)c12 [MC-217, hydrochloride] | 4.9
CCOC(=O)c1c(CSc2ccccc2)n(C)c2cc(Br)c(O)c(CN(C)C)c12 [MC-200, hydrochloride] | 6.5

Proceeding to the next compound to report its Glycosylated hemoglobin.
Note down Glycosylated hemoglobin recorded for CCOC(=O)c1c(CN2CCCC2)n(C)c2cc(-c3cccnc3)c3c(c12)CN(C)CO3 [MC-213, trihydrochloride]
6.2

---

System: white rats with experimental diabetes (alloxan diabetes)
experimentSummary: Anti-diabetic, hypolipidemic and hypocholesteremic activity, alloxan diabetes model in rats (Example 2)
Type: in vivo, rat
experimentalContext: in 20 days; compounds 50 mg/kg, metmorphin 200 mg/kg daily
Experimental: The comparison of anti-diabetic action of compounds was carried out using a standard model of alloxan diabetes and metmorphin as a comparative drug. […] The experimental drug doses were selected assuming the expected therapeutic doses for man and previously determined toxic doses (LD50 of studied compounds was approximately 500-1,000 mg/kg). […]
Counter-ions that a name gives are not always drawn.
propertyMeasured: Percent of survived rats (%)
Answers are plain numbers, in %.

molecule | measuredTarget | unitText | Percent of survived rats
CCOC(=O)c1c(CSc2ccccc2)n(C)c2cc(Br)c(O)c(CN(C)C)c12 [MC-200, hydrochloride] | white rats with experimental diabetes (alloxan diabetes) | % | 75
CCOC(=O)c1c(CN2CCCC2)n(C)c2cc(-c3cccnc3)c3c(c12)CN(C)CO3 [MC-213, trihydrochloride] | white rats with experimental diabetes (alloxan diabetes) | % | 75
CCOC(=O)c1c(CN2CCCC2)n(C)c2cc(-c3cccnc3)c(O)cc12 [MC-207] | white rats with experimental diabetes (alloxan diabetes) | % | 90
CCOC(=O)c1c(CSc2ccc3ccccc3c2)n(C)c2cc(Br)c(O)c(CN(C)C)c12 [MC-217, hydrochloride] | white rats with experimental diabetes (alloxan diabetes) | % | 100

Note down Percent of survived rats recorded for CN(C)C(=N)N=C(N)N [Metmorphin, reference compound]
80

Measured values drawn from patent US8247407B2 for this set.
